Exercise: state measured Normalized Z score 1 for each of the compounds provided.
experimental-system: SpCas9 (Streptococcus pyogenes serotype M1)
Sequence (Q99ZW2 whole entry): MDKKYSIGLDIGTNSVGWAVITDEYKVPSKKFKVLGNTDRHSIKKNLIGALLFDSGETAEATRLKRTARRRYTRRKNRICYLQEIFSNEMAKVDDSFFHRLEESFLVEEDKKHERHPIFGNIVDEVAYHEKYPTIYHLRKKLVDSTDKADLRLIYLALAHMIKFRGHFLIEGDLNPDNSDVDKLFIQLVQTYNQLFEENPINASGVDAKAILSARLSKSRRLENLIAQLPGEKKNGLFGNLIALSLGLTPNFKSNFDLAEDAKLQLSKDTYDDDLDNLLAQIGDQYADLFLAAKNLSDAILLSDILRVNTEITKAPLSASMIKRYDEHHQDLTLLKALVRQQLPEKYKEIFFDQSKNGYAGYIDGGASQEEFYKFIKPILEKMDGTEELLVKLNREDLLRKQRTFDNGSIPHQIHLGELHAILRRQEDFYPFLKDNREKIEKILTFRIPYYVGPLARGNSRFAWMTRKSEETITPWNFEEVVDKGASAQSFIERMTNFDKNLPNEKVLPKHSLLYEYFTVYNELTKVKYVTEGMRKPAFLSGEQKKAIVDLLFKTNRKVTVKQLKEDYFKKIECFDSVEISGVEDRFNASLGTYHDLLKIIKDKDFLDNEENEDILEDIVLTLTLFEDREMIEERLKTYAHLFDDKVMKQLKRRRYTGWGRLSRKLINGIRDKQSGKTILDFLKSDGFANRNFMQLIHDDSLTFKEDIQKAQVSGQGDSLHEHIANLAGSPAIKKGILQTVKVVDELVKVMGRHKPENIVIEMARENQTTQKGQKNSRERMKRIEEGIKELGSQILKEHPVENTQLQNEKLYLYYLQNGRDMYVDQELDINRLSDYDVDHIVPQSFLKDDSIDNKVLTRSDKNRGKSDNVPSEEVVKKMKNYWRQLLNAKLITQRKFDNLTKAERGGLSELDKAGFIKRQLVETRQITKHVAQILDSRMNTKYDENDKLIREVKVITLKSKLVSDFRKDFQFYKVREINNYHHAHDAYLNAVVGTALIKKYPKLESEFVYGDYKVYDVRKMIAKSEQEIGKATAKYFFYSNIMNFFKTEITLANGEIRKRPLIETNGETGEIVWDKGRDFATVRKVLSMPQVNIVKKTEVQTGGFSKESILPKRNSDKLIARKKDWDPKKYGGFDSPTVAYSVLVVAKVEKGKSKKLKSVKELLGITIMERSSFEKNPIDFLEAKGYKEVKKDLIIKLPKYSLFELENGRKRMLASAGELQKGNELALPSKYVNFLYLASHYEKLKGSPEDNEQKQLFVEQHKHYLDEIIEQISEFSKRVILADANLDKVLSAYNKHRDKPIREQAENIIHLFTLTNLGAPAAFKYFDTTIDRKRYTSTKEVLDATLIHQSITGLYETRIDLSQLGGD
measurement-description: Strand displacement assay (SDA) / cumulative activity assay (CAA), SpCas9 primary screen
Format: biochemical
experimental-setup: Primary Screen (150 min); replicate 1
Numbers only.

Fill in Normalized Z score 1 for each of the 3 compounds listed.
1. C=Cc1ccc(CSC2=NS(=O)(=O)c3ccccc3N2)cc1
2. COc1ccc(C2CNC(=O)C2)cc1OC1CCCC1 (stereo not drawn)
3. O=C(Nc1ccc(F)c(Cl)c1)c1ccc(Oc2ccnc(-c3ccc(F)cc3)n2)cc1

0.15
0.17
0.30

Fill in Normalized Z score 1 for each of the 4 compounds listed.
1. O=C(O)CSc1nnc(NC2CCCCC2)s1
2. O=C(O)C(S)=C/C=C\c1ccccc1
3. CCc1cccc(-n2nnnc2N2CCN(C(=O)Nc3ccc(C)cc3Cl)CC2)c1
4. O=C(COC(=O)c1cc(O)c(O)c(O)c1)NC1CCCc2ccccc21 (stereo not drawn)

[0.05, 0.03, 0.16, 0.26]
